- Run description: folding stability dG unfold (combined trypsin and chymotrypsin); higher = more stable
Outcome measure: folding stability dG unfold (kcal/mol)
Give bare numbers, in kcal/mol.

Examples with answers:
SAGGGMVERTETVTVPLSDVLAGRPPTPEAIAAARFPDTAEVTLETTEVPEDDTVTVTLTVRVPPELLSAGG [r13_862_JUSTAS]; -0.0656
SAGGSAGGSGVSSVLESLPPSYTVTVEKLPESGKLVVTVTSPSGAAPSLTLDEELADLLKELLSAGGSAGGS [r12_174_JUSTAS]; 1.47
SAGGSAVRIKVWPPNGKEQWIPIPSSMTPSTVQEMAENLADDWQEQNGNKNVKVEVDPDNGWIRIRSAGGSA [r15_33_TrROS]; -0.0158
PFDIRINVEYERDPDNGKEYIEVSIMVWDGNPEQARDIAKEILEEHFGWKIKDVKVERFPDMYMITFKIRLS [r1_337_TrROS]; 3.78

// for each sequence below, give its folding stability dG unfold
1. SAGGSELKPGDLVEVKVTVEFDEETGKATVEVEFNGKKLTVEVELEENQPPTVEVTLLVRIDKIEPSAGGSA [r2_113_TrROS_Hall]
2. SAGGSAGGSAGDGMIEVKVEFERLFFDENGNVTKKEKVDEIIKVPPVTIDTSTGKLTPLPSAGGSAGGSAGG [r17_413_JUSTAS]

2.46
0.284

---

Exercise: state measured folding stability dG unfold for each of the sequences provided.
- Run description: folding stability dG unfold from chymotrypsin proteolysis; higher = more stable
One number for each entry, in kcal/mol.

SAGGSAGGSAGGWVIRVTIKHPNGKKRTIMIPMPPDNIEEVAKNLMPQGYEIKEPEIFPGSAGGSAGGSAGG [r7_159_TrROS]; 0.902

Lab note: each sequence below needs its folding stability dG unfold filled in.
1. SAGGPPIRIKVELWDPNGKEYTHTFPFGEPLDQILDNASKQFGLPLRVEDIEYDPDGMITITIRIPDSAGGS [r8_285_TrROS]
2. SAGGSAGGSAGERLTADELRKLAEELGLPAEITVERKEDGTYTVTITVDGKTYKIEIKLDSAGGSAGGSAGG [r11_410_TrROS_Hall]
3. SAGGSAGGSAKVTYTENSVTIHAKVPEKPLKIEIPNTGKVVTIDLDKEVTVTFPVPKPPDESAGGSAGGSAG [r3_185_TrMRF]

1: 1.77; 2: 3.44; 3: -0.454

Dear reader, for each entry below, please note its folding stability dG unfold.
1. SAGGSAGGSAGGSFKVTYFPGEKLLAVTFPDGSKKIFKIDDKGNPTIIAVIDPDKGKVLPSAGGSAGGSAGG [r7_659_TrMRF]
2. SAARKIAKKLKEAFPNFPIKDIEITEYEPNPNGRPYMNISIQFPNGGKMEIQFDDPEHPEIREAIREIMSAG [r14_143_TrROS]

2.62
1.69

Specify reported folding stability dG unfold for the sequence shown: SAGGSAGGSEVKTITLTIKNKETNKEIKIEVQVFKNEDGELVFIAKAEITYNGKKYTFTVLLPSAGGSAGGS [r12_619_TrROS_Hall]
4.38

---

- Run description: folding stability dG unfold from chymotrypsin proteolysis; higher = more stable
Outcome measure: folding stability dG unfold (kcal/mol)
Give bare numbers, in kcal/mol.

Below, 3 sequences whose answers are already recorded.
SAGGKKKAKAYIVEKTTEKEGLKYYKVLIELGGKPLVFVIKSTSLEEVEEAIKKLAEELGVEVEIVPGSAGG [r13_750_TrMRF]; 4.69
MSEKTFVVEVKVESPEEAEELIEKLKEKLSGEKYEVKIEKVEVSPDGTVKVHITFKPGVPEEFIKKALEEES [r1_485_TrMRF]; 2.97
SAGTIVFSRDELKELGIPEDMTVEEIKQKILDRLKEEGYEVKITKIEVVEVDEEEGRVLVRITIEVKKPSAG [r5_23_TrROS_Hall]; 4.28

Now for the sequence whose folding stability dG unfold we want.
Please supply the value of reported folding stability dG unfold for the item SAGGSAGGSAGGNFKITEPVEEYPNPNGNPIKVFTFKNPDDGPEFTFIFMPNGNWQFIPSAGGSAGGSAGGS [r10_1123_TrROS]
0.797
